target: UniProt:P11309
Sequence (P11309 whole entry, species assumed): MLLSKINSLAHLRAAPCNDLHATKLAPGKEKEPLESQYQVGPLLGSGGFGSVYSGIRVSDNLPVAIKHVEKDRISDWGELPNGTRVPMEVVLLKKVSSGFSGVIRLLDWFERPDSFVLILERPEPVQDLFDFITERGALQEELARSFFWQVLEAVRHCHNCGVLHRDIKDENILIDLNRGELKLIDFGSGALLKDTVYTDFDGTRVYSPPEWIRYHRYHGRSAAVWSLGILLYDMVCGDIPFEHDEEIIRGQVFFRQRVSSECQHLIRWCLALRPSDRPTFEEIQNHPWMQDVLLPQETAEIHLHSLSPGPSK
pIC50: −log10 of the molar value. Where a name gives a salt, the structure may show the parent alone.
Reported property: pIC50

1 = CCOc1ccc2ccc(-c3nnc4ccc([C@H](N5CCC6(CCCN6)C5)C(F)(F)F)cn34)nc2c1 (stereo partly drawn) [Example 258, dihydrochloride]
2 = C[C@@]1(N)CCN([C@H](c2ccc3nnc(-c4ccc5cccc(C6CC6)c5n4)n3c2)C(F)(F)F)C1 [Example 95, dihydrochloride]
3 = CC(C)Sc1ccc2ccc(-c3nnc4ccc([C@@H](N5CC[C@H](N)C5)C(F)(F)F)cn34)nc2c1 [Example 268, hydrochloride]
4 = COCCOc1ccc2ccc(-c3nnc4ccc([C@H](N5CC[C@](C)(N)C5)C(F)(F)F)cn34)nc2c1 [Example 260, dihydrochloride]
Prompt: Going from lowest to highest recorded pIC50, rank the entries listed above. Note for the reader: the ranking is given by listing the labels in the order requested.
Response: 1, 3, 4, 2
(1: 8.69, 3: 9.05, 4: 9.41, 2: 9.72)

A = COC[C@@H](C)Oc1ccc2ccc(-c3nnc4ccc([C@@H](N5CC[C@H](N)C5)C(F)(F)F)cn34)nc2c1 [Example 149, dihydrochloride]
B = CC(C)Oc1c(C#N)ccc2ccc(-c3nnc4ccc([C@@H](N5CC[C@H](N)C5)C(F)(F)F)cn34)nc12 [Example 75, dihydrochloride]
Prompt: Hello, I am sorting some records. Could you say if A or B has the smaller pIC50 value? When you have decided, please share the label of that item.
Response: B

a = N[C@H]1CCN([C@H](c2ccc3nnc(-c4ccc5ccc(O[C@H]6CCC[C@@H]6O)cc5n4)n3c2)C(F)(F)F)C1 (single isomer, unassigned; diastereomer 1) [Example 319, di-hydrochloride]
b = CC(C)(O)c1cccc2ccc(-c3nnc4ccc([C@@H](N5CC[C@H](N)C5)C(F)(F)F)cn34)nc12 [Example 225]
c = CC1(O)CCN([C@H](c2ccc3nnc(-c4ccc5cccc(C(C)(C)C)c5n4)n3c2)C(F)(F)F)C1 (single isomer, unassigned; diastereomer 2) [Example 196, hydrochloride]
Prompt: Number of molecules to sort: 3. Sort criterion: pIC50, ascending. Your answer should be the labels, listed in the requested order.
Response: c, b, a
(c: 7.37, b: 9.57, a: 9.96)

A = C[C@]1(N)CCN([C@@H](c2ccc3nnc(-c4ccc5ccc(C6CC6)cc5n4)n3c2)C(F)(F)F)C1 [Example 223, dihydrochloride]
B = N[C@H]1CCN([C@H](c2ccc3nnc(-c4ccc5cc(F)cc(OCCCO)c5n4)n3c2)C(F)(F)F)C1 [Example 229, dihydrochloride]
C = N[C@H]1CCN(C(c2ccc3nnc(-c4ccc5ccc(C(F)(F)F)cc5n4)n3c2)C(F)(F)F)C1 (stereo partly drawn) [Example 29, dihydrochloride]
Prompt: Reorder the items by pIC50, least to greatest. Your task in answering is to list the labels in the requested order.
Response: C, A, B

P = N[C@H]1CCN(C(c2ccc3nnc(-c4ccc5cccc(OCC6CC6)c5n4)n3c2)C(F)(F)F)C1 (stereo partly drawn) [Example 5, dihydrochloride]
Q = CCC1(N)CCN([C@@H](c2ccc3nnc(-c4ccc5cccc(OC)c5n4)n3c2)C(F)(F)F)C1 (single isomer, unassigned; diastereomer 1) [Example 250, dihydrochloride]
R = CC1Cc2c(ccc3ccc(-c4nnc5ccc([C@@H](N6CC[C@H](N)C6)C(F)(F)F)cn45)nc23)O1 (stereo partly drawn) [Example 144, dihydrochloride]
S = CCOc1cc2nc(-c3nnc4ccc([C@H](N5CC[C@@](C)(N)C5)C(F)(F)F)cn34)ccc2cc1F [Example 294, hydrochloride]
T = COc1ccc2ccc(-c3nnc4ccc([C@@H](N5CC[C@H](N)C5)C(F)(F)F)cn34)nc2c1C1CC1 [Example 143, dihydrochloride]
Prompt: Please produce an ascending ranking of these molecules based on pIC50. List the labels according to the requested ordering.
Response: Q, R, S, P, T
(Q: 8.56, R: 9.02, S: 9.28, P: 9.60, T: 10.05)

I = CC(C)(O)Cc1cc2nc(-c3nnc4ccc([C@H](N5CC[C@H](N)C5)C(F)(F)F)cn34)ccc2cc1F [Example 237, dihydrochloride]
II = CCNC(=O)c1ccc2ccc(-c3nnc4ccc([C@@H](N5CC[C@H](N)C5)C(F)(F)F)cn34)nc2c1 [Example 38, dihydrochloride]
Prompt: Could you point out whether the larger pIC50 belongs to I or to II ? Reply briefly: the label of your chosen item.
Response: II
(II: 9.64, I: 8.54)

P = N[C@@H]1CCN([C@@H](c2ccc3nnc(-c4ccc5cccc(OCC6CC6)c5n4)n3c2)C(F)(F)F)C1 (single isomer, unassigned) [Example 23]
Q = Cn1cc(-c2ccc3ccc(-c4nnc5ccc(C(N6CC[C@H](N)C6)C(F)(F)F)cn45)nc3c2)cn1 (stereo partly drawn) [Example 4, trihydrochloride]
R = N[C@H]1CCN(C(c2ccc3nnc(-c4ccc5ccc(C6CC6)cc5n4)n3c2)C(F)(F)F)C1 (stereo partly drawn) [Example 3, dihydrochloride]
S = CC(C)NC(=O)c1cccc2ccc(-c3nnc4ccc([C@@H](N5CC[C@H](N)C5)C(F)(F)F)cn34)nc12 [Example 87, dihydrochloride]
Prompt: Put the molecules in ascending order of pIC50. Could you list the labels in the order requested?
Response: S, P, Q, R

meta.source: patent US8889704B2
